Molecular target: soluble guanylate cyclase (human GUCYA3 and GUCYB3) overexpressed in CHO cells (Homo sapiens (Human), UniProt Q02108+Q02153)
Sequence (Q02108 whole entry partner): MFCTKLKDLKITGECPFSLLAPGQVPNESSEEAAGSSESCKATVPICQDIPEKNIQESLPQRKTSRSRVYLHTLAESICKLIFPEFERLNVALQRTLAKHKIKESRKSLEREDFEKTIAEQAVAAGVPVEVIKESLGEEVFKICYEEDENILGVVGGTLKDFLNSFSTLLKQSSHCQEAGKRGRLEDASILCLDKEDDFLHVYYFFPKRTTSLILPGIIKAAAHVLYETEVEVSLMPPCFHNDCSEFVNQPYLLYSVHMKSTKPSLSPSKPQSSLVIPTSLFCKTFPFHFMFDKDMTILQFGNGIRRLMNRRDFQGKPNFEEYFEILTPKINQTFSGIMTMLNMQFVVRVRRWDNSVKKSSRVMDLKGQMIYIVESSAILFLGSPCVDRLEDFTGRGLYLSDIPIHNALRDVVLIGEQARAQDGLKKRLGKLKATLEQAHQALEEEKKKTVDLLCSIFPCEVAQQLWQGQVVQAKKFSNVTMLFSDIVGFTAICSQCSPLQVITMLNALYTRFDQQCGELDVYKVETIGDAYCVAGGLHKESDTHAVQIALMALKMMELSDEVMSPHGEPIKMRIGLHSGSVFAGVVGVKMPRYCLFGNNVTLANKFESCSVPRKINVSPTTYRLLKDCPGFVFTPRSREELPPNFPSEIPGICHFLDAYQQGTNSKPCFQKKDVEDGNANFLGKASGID
Sequence (Q02153 whole entry): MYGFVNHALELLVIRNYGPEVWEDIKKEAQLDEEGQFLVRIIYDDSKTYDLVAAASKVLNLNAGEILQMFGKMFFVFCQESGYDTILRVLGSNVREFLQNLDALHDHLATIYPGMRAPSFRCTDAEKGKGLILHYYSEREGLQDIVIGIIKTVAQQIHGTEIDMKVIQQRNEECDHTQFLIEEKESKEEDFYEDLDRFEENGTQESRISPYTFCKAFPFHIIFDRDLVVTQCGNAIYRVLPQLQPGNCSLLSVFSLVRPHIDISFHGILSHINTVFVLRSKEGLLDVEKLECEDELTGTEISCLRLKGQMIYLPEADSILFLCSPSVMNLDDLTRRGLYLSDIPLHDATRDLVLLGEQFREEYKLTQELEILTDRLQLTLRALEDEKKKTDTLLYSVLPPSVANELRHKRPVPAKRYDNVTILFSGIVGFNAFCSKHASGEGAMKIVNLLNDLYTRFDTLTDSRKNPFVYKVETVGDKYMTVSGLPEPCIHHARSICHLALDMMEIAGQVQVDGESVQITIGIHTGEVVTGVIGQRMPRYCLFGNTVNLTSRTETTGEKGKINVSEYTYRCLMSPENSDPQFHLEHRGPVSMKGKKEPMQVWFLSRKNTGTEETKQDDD
Assay: CHO cellular assay (cGMP production, Cisbio cGMP HTRF kit)
Type: cell-based
Settings: CHO GUCY clone 8E10, cGMP production, assay buffer with 1 mM IBMX and 20 uM ODQ, 1 h room temperature; minimum quantification limit 0.5 nM (listed 0.5 nM means ≤0.5 nM); read-out: EC50
result.type: EC50

// known answers, use as guide
CCc1cc(CN2CCc3cccc(-c4cccc(-n5ncc(C(=O)O)c5C(F)(F)F)n4)c32)ccc1C1CCN(C(=O)C2CC2)CC1 [Example 13]; ≤ 0.5 nM
CCc1cc(NC2CCc3cccc(-c4cccc(-n5ncc(C(=O)O)c5CC)n4)c32)ccc1C1CCN(C(=O)C2CC2)CC1 (single isomer, unassigned; (+)) [(+)-53-1]; ≤ 0.5 nM

# ---- query compound ----
Problem: // Input: CCOC(=O)N1CCC(c2ccc(NC3CCc4cccc(-c5cccc(-n6ncc(C(=O)O)c6CC)n5)c43)cc2CC)CC1 (single isomer, unassigned; (+)) [(+)-52-1] . Output its EC50 only.
Solution: ≤ 0.5 nM
